As shown below, each of these compounds has a reported relative cell viability value.
Tested on: HL-1
Assay: relative cell viability (CellTiter-Glo) vs DMSO control (% of DMSO control); higher = more viable cells
Conditions: oxygen condition: normoxia 72 h; 40 nM
Where a name gives a salt, the structure may show the parent alone.
Response field accepts a number only; no unit should be typed.

compound	numeric_readout
CCOC(=O)C1=C(COCCN)NC(C)=C(C(=O)OC)C1c1ccccc1Cl (centres undefined) [Amlodipine]	107
CCN(CC)CCOC(=O)C(c1ccccc1)c1ccccc1 [Adiphenine HCl]	101
CC(=O)OCC(=O)[C@@]12OC(C)(C)O[C@@H]1C[C@H]1[C@@H]3C[C@H](F)C4=CC(=O)C=C[C@]4(C)[C@@]3(F)[C@@H](O)C[C@@]12C [Fluocinonide]	92.3

Then this compound:
Form field: relative cell viability recorded for O=C(CCCN1CCC(O)(c2ccc(Cl)cc2)CC1)c1ccc(F)cc1 with HL-1 (enter value)
92.8

====

As shown below, each of these compounds has a reported relative cell viability value.
Tested on: HL-1
Test: relative cell viability (CellTiter-Glo) vs DMSO control (% of DMSO control); higher = more viable cells
Details: oxygen condition: hypoxia 48 h (1% O2) + reoxygenation 24 h; 1000 nM
Where a name gives a salt, the structure may show the parent alone.
Response field accepts a number only; no unit should be typed.

These solved cases illustrate the format of a correct answer.
compound	endpoint	numeric_readout
O=C(O)/C=C/c1ccc(Cn2ccnc2)cc1 [Ozagrel]	relative cell viability	85.7
NCCCC[C@H](N[C@@H](CCc1ccccc1)C(=O)O)C(=O)N1CCC[C@H]1C(=O)O [Lisinopril]	relative cell viability	100
CN(C)C(=N)NC(=N)N [Metformin hydrochloride]	relative cell viability	105
O=c1c(-c2ccc(O)cc2)coc2cc(O)ccc12 [Daidzein]	relative cell viability	105
O=c1c(-c2ccc(O)cc2)coc2cc(O)cc(O)c12 [Genistein]	relative cell viability	113
OCCN(CCO)c1nc(N2CCCCC2)c2nc(N(CCO)CCO)nc(N3CCCCC3)c2n1 [Dipyridamole]	relative cell viability	93.7
CN[C@H](CC(C)C)C(=O)N[C@H]1C(=O)N[C@@H](CC(N)=O)C(=O)N[C@H]2C(=O)N[C@H]3C(=O)N[C@H](C(=O)N[C@H](C(=O)O)c4cc(O)cc(O)c4-c4cc3ccc4O)[C@H](O)c3ccc(c(Cl)c3)Oc3cc2cc(c3O[C@@H]2O[C@H](CO)[C@@H](O)[C@H](O)[C@H]2O[C@H]2C[C@](C)(N)[C@H](O)[C@H](C)O2)Oc2ccc(cc2Cl)[C@H]1O [Vancomycin HCl]	relative cell viability	105
Nc1ccn([C@@H]2O[C@H](CO)[C@@H](O)C2(F)F)c(=O)n1 [Gemcitabine HCl]	relative cell viability	3.86

Then this compound:
Any idea what its relative cell viability is? The compound is O=C(O)c1ccc(-n2nc(-c3ccccc3O)nc2-c2ccccc2O)cc1 [Deferasirox]
99.7

====

System: HL-1
Assay: relative cell viability (CellTiter-Glo) vs DMSO control (% of DMSO control); higher = more viable cells
Conditions: oxygen condition: normoxia 72 h; 40 nM
Where a name gives a salt, the structure may show the parent alone.
Could you please mark Met for values of relative cell viability below 100 and Not met for values at or above it?

Known results for compounds:
compound	target_or_system	class_name
O=C[C@H](O)[C@@H](O)[C@H](O)CO	HL-1	Not met
CC1=C(/C=C/C(C)=C/C=C/C(C)=C/C(=O)O)C(C)(C)CCC1	HL-1	Not met
O=C1[C@H](CC[C@H](O)c2ccc(F)cc2)[C@@H](c2ccc(O)cc2)N1c1ccc(F)cc1	HL-1	Not met
CC(C)NCC(O)COc1ccc(CCOCC2CC2)cc1 (configuration not stated) [Betaxolol hydrochloride]	HL-1	Not met

Given CC1(C)Cc2c(-c3ccccc3)c(-c3ccc(Cl)cc3)c(CC(=O)O)n2C1 , is recorded relative cell viability strictly lower than 100?
Met

====

System: HL-1
Experiment: relative cell viability (CellTiter-Glo) vs DMSO control (% of DMSO control); higher = more viable cells
Details: oxygen condition: hypoxia 48 h (1% O2) + reoxygenation 24 h; 5000 nM
Where a name gives a salt, the structure may show the parent alone.
endpoint: relative cell viability
Response field accepts a number only; no unit should be typed.

These solved cases illustrate the format of a correct answer.
> print(dat)
                                   compound  numeric.readout
1  CC1(C)S[C@@H]2[C@H](NC(=O)[C@H](NC(=O)N3CCNC3=O)c3ccccc3)C(=O)N2[C@H]1C(=O)O [Azlocillin sodium salt]              110
2  Cc1ccccc1N1C(=O)c2cc(S(N)(=O)=O)c(Cl)cc2NC1C (centres undefined) [Metolazone]              111
3  COCCOC(=O)C1=C(C)NC(C)=C(C(=O)OC/C=C/c2ccccc2)C1c1cccc([N+](=O)[O-])c1 (centres undefined) [Cilnidipine]              109

Then this compound:
Any idea what its relative cell viability is? The compound is Nc1nc(Cl)nc2c1ncn2[C@H]1C[C@H](O)[C@@H](CO)O1 [Cladribine]
4.06

====

As shown below, each of these molecules has a reported relative cell viability value.
Test system: HL-1
Assay: relative cell viability (CellTiter-Glo) vs DMSO control (% of DMSO control); higher = more viable cells
Details: oxygen condition: normoxia 72 h; 40 nM
Response field accepts a number only; no unit should be typed.

Any idea what its relative cell viability is? The molecule is CO[C@H]1C[C@@H]2CC[C@@H](C)[C@@](O)(O2)C(=O)C(=O)N2CCCC[C@H]2C(=O)O[C@H]([C@H](C)C[C@@H]2CC[C@@H](OCCO)[C@H](OC)C2)CC(=O)[C@H](C)/C=C(\C)[C@@H](O)[C@@H](OC)C(=O)[C@H](C)C[C@H](C)/C=C/C=C/C=C/1C
70.4

And then C[C@H](CCC(=O)O)[C@H]1CC[C@H]2[C@@H]3CC[C@@H]4C[C@H](O)CC[C@]4(C)[C@H]3CC[C@]12C , what is it?
102

And then NCCCC(O)(P(=O)(O)O)P(=O)(O)O [Alendronate] , what is it?
99.2

And then CC(=O)O[C@H]1C[C@@H]2CC[C@@H]3[C@H](CC[C@@]4(C)[C@H]3C[C@H]([N+]3(C)CCCCC3)[C@@H]4OC(C)=O)[C@@]2(C)C[C@@H]1N1CCCCC1 [Vecuronium Bromide] , what is it?
112

And then N[C@@H](Cc1ccc(O)c(O)c1)C(=O)O , what is it?
104

And then Clc1ccc(COC(Cn2ccnc2)c2ccc(Cl)cc2Cl)c(Cl)c1 (stereo not given) , what is it?
101

====

Tested on: HL-1
Assay: relative cell viability (CellTiter-Glo) vs DMSO control (% of DMSO control); higher = more viable cells
Details: oxygen condition: normoxia 72 h; 200 nM
Structures can show the parent of a compound that is named as a salt.
endpoint: relative cell viability
Response field accepts a number only; no unit should be typed.

These solved cases illustrate the format of a correct answer.
compound	relative cell viability
CN(C)CCCN1c2ccccc2Sc2ccc(C(F)(F)F)cc21 [Triflupromazine HCl]	99.3
CC[C@]1(O)C[C@H]2CN(CCc3c([nH]c4ccccc34)[C@@](C(=O)OC)(c3cc4c(cc3OC)N(C=O)[C@H]3[C@@](O)(C(=O)OC)[C@H](OC(C)=O)[C@]5(CC)C=CCN6CC[C@]43[C@@H]65)C2)C1	29.1
O=C(O)/C=C/c1ccc(Cn2ccnc2)cc1 [Ozagrel HCl]	96.8

Any idea what its relative cell viability is? The compound is CCCCC(=O)N(Cc1ccc(-c2ccccc2-c2nnn[nH]2)cc1)[C@H](C(=O)O)C(C)C
95.6

And then Oc1cc(O)c(Cl)cn1 , what is it?
101

And then Cc1cccc(N(C)C(=S)Oc2ccc3ccccc3c2)c1 [Tolnaftate] , what is it?
101

And then Cc1ccccc1N1C(=O)c2cc(S(N)(=O)=O)c(Cl)cc2NC1C (stereo not drawn) , what is it?
110

And then O=c1[nH]c(=O)n([C@H]2C[C@H](O)[C@@H](CO)O2)cc1F , what is it?
41.5

====

As shown below, each of these molecules has a reported relative cell viability value.
System: HL-1
Test: relative cell viability (CellTiter-Glo) vs DMSO control (% of DMSO control); higher = more viable cells
Details: oxygen condition: normoxia 72 h; 1000 nM
Structures can show the parent of a compound that is named as a salt.
Response field accepts a number only; no unit should be typed.

> print(dat)
                                   molecule  target.or.system                 endpoint  numeric.readout
1  CCCCc1oc2ccccc2c1C(=O)c1cc(I)c(OCCN(CC)CC)c(I)c1 [Amiodarone HCl]              HL-1  relative cell viability              106
2    NC(N)=Nc1nc(CSCC/C(N)=N/S(N)(=O)=O)cs1              HL-1  relative cell viability             97.9
3             Nc1nc(N)nc(-c2cc(Cl)ccc2Cl)n1              HL-1  relative cell viability              108

Any idea what its relative cell viability is? The molecule is CCOc1nc2cccc(C(=O)O)c2n1Cc1ccc(-c2ccccc2-c2noc(=O)[nH]2)cc1
114

And then Nc1nnc(-c2cccc(Cl)c2Cl)c(N)n1 , what is it?
115

And then O=C(Nc1c(Cl)cncc1Cl)c1ccc(OC(F)F)c(OCC2CC2)c1 , what is it?
93.7

And then CC(=O)OCC(=O)NCCCOc1cccc(CN2CCCCC2)c1 [Roxatidine acetate HCl] , what is it?
107

And then COc1ccccc1OCC(O)CN1CCN(CC(=O)Nc2c(C)cccc2C)CC1 (stereo not given) [Ranolazine] , what is it?
107

And then Cn1ccnc1S , what is it?
95.4

And then OC(CCN1CCCC1)(c1ccccc1)C1CCCCC1 (stereo not given) [Procyclidine HCl] , what is it?
82.5

Recorded values, source the supplement of paper PMC8371130.
